experiment: LC retention time (Atlantis T3, 5-95% MeOH gradient, 0.1% formic acid); higher = more retained / less polar
endpointLabel: LC retention time (min)
Write down the numeric answer in min and omit the unit.

Sample answers from the record:
Cc1cccc(C)c1N(Cn1cccn1)C(=O)CS(=O)(=O)[O-] : 17.5
COc1cccc2c1C(=O)c1c(O)c3c(c(O)c1C2=O)CC(O)(C(=O)CO)CC3OC1CC([NH3+])C(O)C(C)O1 (centres undefined) : 15.8

Specify LC retention time for CC(C)(C)c1n[nH]c(=O)n(N)c1=O and stop.
15.6

Specify LC retention time for COc1cccc2c1C(=O)c1c(O)c3c(c(O)c1C2=O)CC(O)(C(O)CO)CC3OC1CC([NH3+])C(O)C(C)O1 (centres undefined) and stop.
15.2
